// provenance: patent US8211935B2

target: CaV2.2 (Homo sapiens); construct: expressed in transfected cells; host or cells: HEK293; assay: VIPR optical membrane potential assay with electrical stimulation; type: cell-based; settings: Table 3, biological assay data; read-out: IC50
Sequence (Q00975 whole entry): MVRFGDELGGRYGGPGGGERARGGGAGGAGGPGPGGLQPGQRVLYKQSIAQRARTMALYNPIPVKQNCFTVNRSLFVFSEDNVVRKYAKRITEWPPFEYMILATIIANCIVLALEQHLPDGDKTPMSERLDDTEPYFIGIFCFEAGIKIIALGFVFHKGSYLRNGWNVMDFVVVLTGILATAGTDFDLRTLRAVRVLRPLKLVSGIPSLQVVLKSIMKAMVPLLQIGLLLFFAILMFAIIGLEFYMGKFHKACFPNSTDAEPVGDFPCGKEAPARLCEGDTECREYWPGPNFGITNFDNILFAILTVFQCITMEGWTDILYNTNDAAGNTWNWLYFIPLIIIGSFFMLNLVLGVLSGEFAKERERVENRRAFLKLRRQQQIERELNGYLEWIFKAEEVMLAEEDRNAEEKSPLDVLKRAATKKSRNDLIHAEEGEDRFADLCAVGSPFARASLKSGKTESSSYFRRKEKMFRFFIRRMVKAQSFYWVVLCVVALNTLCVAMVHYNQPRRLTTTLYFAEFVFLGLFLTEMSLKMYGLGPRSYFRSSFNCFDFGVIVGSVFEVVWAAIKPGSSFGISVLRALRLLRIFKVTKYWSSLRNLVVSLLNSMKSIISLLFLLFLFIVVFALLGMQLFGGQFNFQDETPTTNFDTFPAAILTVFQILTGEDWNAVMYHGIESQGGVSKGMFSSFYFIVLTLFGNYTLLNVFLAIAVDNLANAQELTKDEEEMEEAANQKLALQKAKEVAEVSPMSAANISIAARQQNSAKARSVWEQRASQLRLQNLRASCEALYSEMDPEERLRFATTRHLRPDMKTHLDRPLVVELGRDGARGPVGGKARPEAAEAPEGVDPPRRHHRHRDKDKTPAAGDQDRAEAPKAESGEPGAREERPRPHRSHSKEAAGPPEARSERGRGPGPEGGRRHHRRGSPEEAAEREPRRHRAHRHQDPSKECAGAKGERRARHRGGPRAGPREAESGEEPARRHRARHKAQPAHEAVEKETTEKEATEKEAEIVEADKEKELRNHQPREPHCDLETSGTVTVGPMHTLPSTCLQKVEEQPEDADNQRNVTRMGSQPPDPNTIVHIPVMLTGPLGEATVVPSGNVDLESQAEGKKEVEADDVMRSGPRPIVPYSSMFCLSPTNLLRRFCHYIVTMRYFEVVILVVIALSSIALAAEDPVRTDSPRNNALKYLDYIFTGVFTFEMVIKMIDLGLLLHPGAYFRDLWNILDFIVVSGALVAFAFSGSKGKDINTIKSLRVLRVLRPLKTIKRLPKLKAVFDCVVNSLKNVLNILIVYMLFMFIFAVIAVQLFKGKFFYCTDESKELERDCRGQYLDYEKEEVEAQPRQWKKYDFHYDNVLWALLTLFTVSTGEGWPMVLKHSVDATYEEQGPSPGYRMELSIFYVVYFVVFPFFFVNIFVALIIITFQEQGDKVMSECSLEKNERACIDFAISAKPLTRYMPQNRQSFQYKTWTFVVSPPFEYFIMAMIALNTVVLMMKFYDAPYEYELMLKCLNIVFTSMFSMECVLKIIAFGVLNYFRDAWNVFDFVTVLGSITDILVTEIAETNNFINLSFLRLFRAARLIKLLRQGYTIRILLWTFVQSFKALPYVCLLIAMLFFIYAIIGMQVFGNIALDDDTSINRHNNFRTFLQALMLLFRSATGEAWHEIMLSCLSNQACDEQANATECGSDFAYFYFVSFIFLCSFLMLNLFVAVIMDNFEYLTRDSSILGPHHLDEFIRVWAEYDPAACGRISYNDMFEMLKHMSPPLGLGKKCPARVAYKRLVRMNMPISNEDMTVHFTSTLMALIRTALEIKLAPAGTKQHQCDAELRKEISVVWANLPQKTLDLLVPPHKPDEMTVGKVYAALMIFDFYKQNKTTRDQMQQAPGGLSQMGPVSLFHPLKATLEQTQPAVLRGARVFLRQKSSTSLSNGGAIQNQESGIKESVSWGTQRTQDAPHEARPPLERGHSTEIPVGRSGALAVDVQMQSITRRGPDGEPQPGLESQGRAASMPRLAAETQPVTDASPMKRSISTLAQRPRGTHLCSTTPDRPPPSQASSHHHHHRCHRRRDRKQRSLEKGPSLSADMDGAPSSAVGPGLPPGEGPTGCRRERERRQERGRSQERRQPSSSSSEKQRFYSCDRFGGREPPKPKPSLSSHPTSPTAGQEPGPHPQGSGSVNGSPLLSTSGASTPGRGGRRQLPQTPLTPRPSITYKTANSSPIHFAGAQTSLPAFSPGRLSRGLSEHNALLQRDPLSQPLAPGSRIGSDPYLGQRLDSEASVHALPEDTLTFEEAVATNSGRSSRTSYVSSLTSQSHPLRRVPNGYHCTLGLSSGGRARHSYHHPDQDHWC
Sequence (P54284 whole entry partner): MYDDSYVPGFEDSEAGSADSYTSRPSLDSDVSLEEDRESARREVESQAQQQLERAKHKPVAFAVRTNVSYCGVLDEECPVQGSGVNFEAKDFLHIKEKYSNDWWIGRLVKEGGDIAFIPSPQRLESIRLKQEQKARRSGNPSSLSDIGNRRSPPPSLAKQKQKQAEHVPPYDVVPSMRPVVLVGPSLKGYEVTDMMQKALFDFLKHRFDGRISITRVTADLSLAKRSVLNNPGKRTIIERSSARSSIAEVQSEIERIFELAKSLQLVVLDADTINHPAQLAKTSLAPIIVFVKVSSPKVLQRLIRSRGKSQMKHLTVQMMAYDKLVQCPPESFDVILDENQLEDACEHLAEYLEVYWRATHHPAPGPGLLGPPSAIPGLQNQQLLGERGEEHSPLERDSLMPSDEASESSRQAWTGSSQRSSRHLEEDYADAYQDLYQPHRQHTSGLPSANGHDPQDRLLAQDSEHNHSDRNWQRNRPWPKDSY
Sequence (P54289 25-946 partner limits assumed): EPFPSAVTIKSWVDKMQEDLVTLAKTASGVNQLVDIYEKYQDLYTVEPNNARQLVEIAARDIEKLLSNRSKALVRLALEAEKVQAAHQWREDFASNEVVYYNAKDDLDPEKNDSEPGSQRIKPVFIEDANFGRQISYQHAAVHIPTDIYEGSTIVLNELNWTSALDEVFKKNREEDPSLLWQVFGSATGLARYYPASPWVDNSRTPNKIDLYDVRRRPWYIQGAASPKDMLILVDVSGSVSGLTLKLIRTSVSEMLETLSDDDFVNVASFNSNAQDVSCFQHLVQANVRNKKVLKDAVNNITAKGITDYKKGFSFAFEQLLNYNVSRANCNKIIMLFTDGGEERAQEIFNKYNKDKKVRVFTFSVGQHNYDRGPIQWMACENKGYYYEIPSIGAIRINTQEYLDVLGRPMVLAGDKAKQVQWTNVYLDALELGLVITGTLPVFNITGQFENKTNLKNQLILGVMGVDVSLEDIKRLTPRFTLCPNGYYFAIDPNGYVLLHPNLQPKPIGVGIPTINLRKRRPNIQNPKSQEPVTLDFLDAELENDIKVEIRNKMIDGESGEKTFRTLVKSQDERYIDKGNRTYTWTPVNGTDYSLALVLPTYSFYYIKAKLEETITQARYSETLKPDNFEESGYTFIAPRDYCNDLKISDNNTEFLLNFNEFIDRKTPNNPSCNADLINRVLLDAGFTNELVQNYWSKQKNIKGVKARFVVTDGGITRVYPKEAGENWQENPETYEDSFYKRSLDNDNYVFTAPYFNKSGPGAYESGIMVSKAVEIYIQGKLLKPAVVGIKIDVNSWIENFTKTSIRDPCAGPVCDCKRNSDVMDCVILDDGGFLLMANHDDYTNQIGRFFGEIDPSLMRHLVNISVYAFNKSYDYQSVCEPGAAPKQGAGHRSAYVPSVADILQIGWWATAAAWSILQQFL
Sequence (P54289 947-1103 partner limits assumed): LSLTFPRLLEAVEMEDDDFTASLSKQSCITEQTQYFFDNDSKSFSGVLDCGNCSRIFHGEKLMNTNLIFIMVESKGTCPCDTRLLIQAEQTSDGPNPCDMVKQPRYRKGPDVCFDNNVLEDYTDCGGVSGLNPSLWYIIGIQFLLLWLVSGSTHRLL
QUANTITY: IC50

// query Would you mind telling me what IC50 value was observed for CC1CC(C)CN(S(=O)(=O)c2ccc3oc(C(=O)NCCC4CCOCC4)cc3c2)C1 (stereo not drawn) [compound 225] ?
// result < 5 µM

// query Would you mind telling me what IC50 value was observed for Cc1c(C(=O)NC(C)C)oc2ccc(S(=O)(=O)N3CCC(F)CC3)cc12 [compound 157] ?
// result 5 to 20 µM

// query Would you mind telling me what IC50 value was observed for CCN(CC)S(=O)(=O)c1ccc2oc(C(=O)N3CCCC(C)C3)c(C)c2c1 (stereo not drawn) [compound 388] ?
// result 5 to 20 µM

Continuing:
// query Would you mind telling me what IC50 value was observed for Cc1c(C(=O)N(C(C)C)C(C)C)[nH]c2ccc(S(=O)(=O)N3CCC(C)CC3)cc12 [compound 262] ?
// result < 5 µM

// query Would you mind telling me what IC50 value was observed for CC1CCN(C(=O)c2cc3cc(S(=O)(=O)N4CC(C)CC(C)C4)ccc3[nH]2)CC1 (stereo not drawn) [compound 194] ?
// result < 5 µM

// query Would you mind telling me what IC50 value was observed for Cc1c(C(=O)NC2CC2)oc2ccc(S(=O)(=O)Nc3nccs3)cc12 [compound 447] ?
// result < 20 µM

// query Would you mind telling me what IC50 value was observed for CCN(CC)C(=O)c1oc2ccc(S(=O)(=O)N(CC)CC)cc2c1C [compound 186] ?
// result < 20 µM

// query Would you mind telling me what IC50 value was observed for Cc1c(C(=O)NCCc2ccccc2)[nH]c2ccc(S(=O)(=O)N3CC(C)CC(C)C3)cc12 (stereo not drawn) [compound 13] ?
// result < 5 µM

// query Would you mind telling me what IC50 value was observed for CCCCN(C)C(=O)c1cc2cc(S(=O)(=O)N3CCCCCC3)ccc2[nH]1 [compound 422] ?
// result < 5 µM

// query Would you mind telling me what IC50 value was observed for CCN(CC)S(=O)(=O)c1ccc2oc(C(=O)N3CCc4ccccc4C3)c(C)c2c1 [compound 85] ?
// result < 5 µM

// query Would you mind telling me what IC50 value was observed for Cc1c(C(=O)NC2CC2)oc2ccc(S(=O)(=O)NCCN3CCCCC3)cc12 [compound 25] ?
// result < 20 µM

// query Would you mind telling me what IC50 value was observed for Cc1c(C(=O)NCc2cccnc2)oc2ccc(S(=O)(=O)N3CC(C)CC(C)C3)cc12 (stereo not drawn) [compound 63] ?
// result 5 to 20 µM

// query Would you mind telling me what IC50 value was observed for Cc1c(C(=O)NC2CCCCC2)[nH]c2ccc(S(=O)(=O)N3CCC(C)CC3)cc12 [compound 424] ?
// result 5 to 20 µM

// query Would you mind telling me what IC50 value was observed for CCCCN(C)C(=O)c1cc2cc(S(=O)(=O)N3CC(C)CC(C)C3)ccc2o1 (stereo not drawn) [compound 229] ?
// result < 5 µM
